Tested on: MS2 coat protein
METHOD: apparent Kd, MS2 coat protein; higher = weaker binding; RNA-MaP array; FMN 200 µM where present
PARTICULARS: designed as: OFF switch for flavin mononucleotide; no ligand
Quick reference for apparent Kd among some sequences
EXPERIMENTAL ENDPOINT: apparent Kd (nM)

UAUAUAUAGUAAGGAUAUGUAUAUAGUUUAUAAACAGAAGGUACUGACAUGAGGAUCACCCAUGUUUUAGUGUGGGCAUGUAGA: 77.9
CGUGUACGAGGAUAUAGAUUGGAUGACAUGAGGAUCACCCAUGUGAUCGAUCUAUUUGGUUUAGAAGGUGUACAUG: 13.4
GUCCCGUCUAGCUUCAGCACAUGAGGAUCACCCAUGUCCUAGAGAAGGGCCUAGAGUUAUCAAAGGCAGGAUAUCUGCACAUGG: 30.8
GUAGUGUAUGUAGGAUAUGUGAAGCAAAGCUUCACAGAAGGACAUGAGGAUCACCCAUGUAUUGCAGUCUGCAAUCAGACUGCU: 43.4
GAAAACGCAGAGGAUAUUUCAGAUCAAAGCUGCAAAGAAGGCUGCACAUGAGGAUCACCCAUGUGGUCUUUAAA: 19.3
UGUGGUGGUUAGGAUAUAAUUAGAGGUUACUCGUUAGAAGGAGCUACAUGAGGAUCACCCAUGUGACUGUCCGC: 29.8
UAGAAGUCAGGAUAUCCAUGGCGGCACUUGCGUGGUGGCGUGGAGAAGGGACAUGAGGAUCACCCAUGUAAAGU: 53.3
AGCGGUGCAGGAUAUGGCCGAUCCCACAUGAGGAUCACCCAUGUAAAUAAAAUAAGAUCUCCAGAAGGGCAUCGCA: 30.4
AGCAUGCUAGGAUAUACGAAACAUUAGGGUUCUUUGUAUAAACAUGAGGAUCACCCAUGUAGAAGGAGCGUGCA: 46.1
GGGCCCGGAGGAUAUACAAUUUUGGGCCGAAAGGCCCGGGUACAUGAGGAUCACCCAUGUAGAAGGCCGGGUUU: 31.9
AAGUCGUGAGGAUAUACAUGCAUAUACAUUUAUGUAAAACUACAUGAGGAUCACCCAUGUAGAAGGCACGAAUA: 17.6
GUCAUGUGAGGAUAUGUAGCCACGAAAUCUUGUAGAGGCAGACAGAAGGCACAUGAGGAUCACCCAUGUGUUUU: 31.6
AGCUGUGGCAGAGGAUAUACUACUAUAAUCCAUUGCAAAUAGCGAUGGACAUGAGGAUCACCCAUGUAGAAGGCUGUCACAGCA: 45.6
CCGUCAAUCGAGAAGGGCCUAUGUGCUACAUCGGCAGGAUAUCGACAUGAGGAUCACCCAUGUUGGCGAUCCUUUUUGGCGGAC: 156
CUCUUGGCAGGAUAUGCUUUUUUAGACAUGAGGAUCACCCAUGUGAUGAAUAUUGGGUUCGCAGAAGGGCCUGAAU: 54.1
AACCUGGUAAAUAAACUCAAUUACAUGAGGAUCACCCAUGUAUAGGAUAUGCAGUGGAAUACACUGCAGAAGGAUACAUCCAGG: 18
GAUCCUUCUGUUAGGAUAUGCUUUGGGCUUCCGCAGCAGAAGGAACAUGAGGAUCACCCAUGUCCAAUACCAUC: 42.6
CGAGUUUUUGAGAAGGCAUAUUAUAUUAUACCACAUGUUUACAUGAGGAUCACCCAUGUUUCCUAUGAGGAUAUCAGAAUGUCG: 9.34
UGUAUACAGUCAGGAUAUCAUAGGUUGGUGCUUCUCCAGUGGUACAUGAGGAUCACCCAUGUUUAUGAGAAGGGACUAUUACCU: 7.82
CGGUGCUGAGGAUAUACAUGAGGAUCACCCAUGUGUGCCAGCUAGCUGACUGGCGCUUGUAGAAGGCAGUACUG: 12.1
ACUCCUCCUGUUAGGAUAUGCAUCGGGCUUCCGCAGCAGAAGGAACAUGAGGAUCACCCAUGUCAAAUAAAAUC: 19.6
GGUGCUAUGUAGAAGGCAGAUCUGAUUCAGAUCUGAGGAUAUACAUGAGGAUCACCCAUGUUAUGCACCAGCACGAGAGUGCAG: 8.07
GUGUUUGAUGAGGAUAUCGUUGUGGGUAUAUAGCGAGAAGGCAUUACAUGAGGAUCACCCAUGUAGUGUGGGUU: 26.2
CCGGAAAUAGAGGAUAUCGUAUCGGAUACGAUACGAGAAGGCUGUACAUGAGGAUCACCCAUGUGUCCUACCGG: 11.2
AGAGUGAUUACCUCGGUCCCACAUGAGGAUCACCCAUGUAACAAGGAUAUCGCUCCAAAUGGAAGUGAGAAGGUGUCUCAUGUC: 27.8
GGAUAGAUGAAGGGCGAACGCGCACAUGAGGAUCACCCAUGUAGAAGGCGGUCCGCAACGCGGAUCGAGGAUAUAUAGUAUACG: 18.4
CGAUGACAUAGUCAUCCGUAACGGACAUGAGGAUCACCCAUGUAGGAUAUGCUACUCAACGAGUAGCAGAAGGACAUGAGUCUU: 38.3
AACAGUAGAGGAUAUACAUGAGGAUCACCCAUGUGAUAAUUACGUGGCGUACCACGAUGUAGAAGGCUACUGGA: 144
GGAUUACAUGAGGAUCACCCAUGUGAGGAUAUCGAUGUCCUGUAAUUCGUGCGGGACUCGAGAAGGCACUUGGA: 51.3
GAUCAGCUUGUGAGGAUAUCCGGGCUUAAAGGCUAGGAGAAGGUACAUGAGGAUCACCCAUGUAGAGUCCUGGG: 73.8
